assay: Toxicity liver stage against HepG2, at 10uM; assay type: cell-based; parameters: test concentration 10 uM, cell line HepG2-A16-CD81EGFP; conditions: human, HepG2-A16-CD81EGFP cells; read-out: INHIBITION
Quick list: cytotoxicity at 10 µM per entry.
Reply with just the number (in %).

These solved cases illustrate the format of a correct answer.
>  <compound>
COCCN1CCO[C@H]2CN(C(=O)c3cccs3)C[C@H]21

>  <unitsLabel>
%

>  <cytotoxicity at 10 µM>
2.1

$$$$
>  <compound>
Cc1nc(NCCCn2cccn2)c2c(n1)c(C)nn2C

>  <unitsLabel>
%

>  <cytotoxicity at 10 µM>
6.64

$$$$
>  <compound>
Cc1csc(N2CCN(CC(=O)N3CCCC3)CC2C)n1 (centres undefined)

>  <unitsLabel>
%

>  <cytotoxicity at 10 µM>
-0.456

$$$$
>  <compound>
Cc1cc(NC(=O)CN2CCN(c3nccs3)C(C)C2)no1 (centres undefined)

>  <unitsLabel>
%

>  <cytotoxicity at 10 µM>
-9.66

$$$$

What the record says about Cc1nc(CN2CCCC(NCc3nc4ccccc4s3)C2)no1 (centres undefined) : cytotoxicity at 10 µM is -0.84

What the record says about Cc1nc(C)n(CC2CCCN(Cc3nnc(C4CC4)o3)C2)n1 (centres undefined) : cytotoxicity at 10 µM is -12.9

###

assay: Toxicity liver stage against HepG2, at 10uM; assay type: cell-based; set-up: test concentration 10 uM, cell line HepG2-A16-CD81EGFP; details: human, HepG2-A16-CD81EGFP cells; read-out: INHIBITION
reportedProperty: cytotoxicity at 10 µM (%)
Reply with just the number (in %).

These solved cases illustrate the format of a correct answer.
>  <compound>
COCCNC(=O)c1cc2c(s1)CCN2S(C)(=O)=O

>  <cytotoxicity at 10 µM [%]>
-5.05

$$$$
>  <compound>
Cn1ncc2c(N3CCCN4CCC[C@H]4C3)nc(C(C)(C)C)nc21

>  <cytotoxicity at 10 µM [%]>
-128

$$$$
>  <compound>
CCCS(=O)(=O)N1CCO[C@H]2[C@H](OCc3ccccn3)CC[C@@H]21

>  <cytotoxicity at 10 µM [%]>
-9

$$$$
>  <compound>
Cc1nn(C)cc1-c1ccnc(N(C)Cc2ccoc2)n1

>  <cytotoxicity at 10 µM [%]>
23.8

$$$$
>  <compound>
Cc1ccc(C2CCCN2Cc2nc3c(cnn3C)c(=O)[nH]2)cc1C (stereo not drawn)

>  <cytotoxicity at 10 µM [%]>
-0.858

$$$$
>  <compound>
O=C(NC1CC2(CCN(CCO)CC2)Oc2ccccc21)c1csnn1 (stereo not drawn)

>  <cytotoxicity at 10 µM [%]>
-101

$$$$
>  <compound>
CN(C)C(Cn1ccnc1-c1ccccc1C(=O)O)c1ccccc1Cl (stereo not drawn)

>  <cytotoxicity at 10 µM [%]>
-0.966

$$$$

Query compound follows.
What the record says about COCC(=O)N1CCCN(C(=O)C2Cc3ccccc3CN2C)CC1 (stereo not drawn) : cytotoxicity at 10 µM is 4.28

###

experiment: Toxicity liver stage against HepG2, at 10uM; type: cell-based; set-up: test concentration 10 uM, cell line HepG2-A16-CD81EGFP; conditions: human, HepG2-A16-CD81EGFP cells; read-out: INHIBITION
Quick list: cytotoxicity at 10 µM per entry.
Reply with just the number (in %).

These solved cases illustrate the format of a correct answer.
>  <molecule>
CC(NC(=O)c1cc2n(n1)CCCN(C)C2)c1cn2ccsc2n1 (configuration not stated)

>  <unitsLabel>
%

>  <cytotoxicity at 10 µM>
-2.51

$$$$
>  <molecule>
COc1ccc(-n2cnnc2SCC(C)(C)O)cn1

>  <unitsLabel>
%

>  <cytotoxicity at 10 µM>
13.5

$$$$
>  <molecule>
CCc1cnc(N)nc1NC(C)c1cnn(C)c1 (configuration not stated)

>  <unitsLabel>
%

>  <cytotoxicity at 10 µM>
-0.333

$$$$

What the record says about CCN1CCN(C2CCN(Cc3cc(C)on3)CC2)C1=O : cytotoxicity at 10 µM is -5.74

What the record says about CN1CCCN(Cn2nc(-c3ccccc3F)ccc2=O)CC1 : cytotoxicity at 10 µM is 9.77

What the record says about CN1CCN(Cc2ccccc2Cl)CC12CCC(=O)N(CC1CC1)CC2 (configuration not stated) : cytotoxicity at 10 µM is -3.94

What the record says about COc1cc(CNC(=O)Nc2nnc(C(C)C)s2)ccc1O : cytotoxicity at 10 µM is -2.22

What the record says about COc1ccc(CCC2CCCCN2)cc1 (configuration not stated) : cytotoxicity at 10 µM is -9.83

###

assay: Toxicity liver stage against HepG2, at 10uM; format: cell-based; set-up: test concentration 10 uM, cell line HepG2-A16-CD81EGFP; conditions: human, HepG2-A16-CD81EGFP cells; read-out: INHIBITION
reportedProperty: cytotoxicity at 10 µM (%)
Reply with just the number (in %).

What the record says about Cc1ccccc1NC(=O)NCC(C)(O)c1cccs1 (stereo unspecified) : cytotoxicity at 10 µM is 8.5

What the record says about COCCCN1CC2(CCN(C(=O)c3ncc(F)cc3F)CC2)CC1=O : cytotoxicity at 10 µM is -3.94

What the record says about CCOC(=O)CC(C)Nc1nc(C2CCCC2)nc2c1cnn2C (stereo unspecified) : cytotoxicity at 10 µM is -43.1

###

assay: Toxicity liver stage against HepG2, at 10uM; type: cell-based; set-up: test concentration 10 uM, cell line HepG2-A16-CD81EGFP; conditions: human, HepG2-A16-CD81EGFP cells; read-out: INHIBITION
Quick list: cytotoxicity at 10 µM per entry.
Reply with just the number (in %).

These solved cases illustrate the format of a correct answer.
>  <compound>
CCCN1CCN(Cc2cc3cc(OCC)ccc3[nH]c2=O)CC1

>  <measValue>
-9.91

$$$$
>  <compound>
O=C(c1cnco1)N1CCCC(Cc2cccc3ncccc23)C1 (centres undefined)

>  <measValue>
2.16

$$$$
>  <compound>
Cc1nc(CSCCC(=O)NCCNC(=O)OC(C)(C)C)cs1

>  <measValue>
-2.3

$$$$
>  <compound>
N#Cc1ccc(F)c(CN2CCNC(=O)C2c2cccs2)c1 (centres undefined)

>  <measValue>
11.5

$$$$

What the record says about Cc1nnc(CCNC(=O)[C@H]2CNC[C@@H](C(=O)N3CCCC3)C2)s1 : cytotoxicity at 10 µM is -113

What the record says about NC(=O)C1CCN(Cn2nc(-c3ccc(F)cc3)oc2=O)C1 (centres undefined) : cytotoxicity at 10 µM is 14.6

###

assay: Toxicity liver stage against HepG2, at 10uM; type: cell-based; design: test concentration 10 uM, cell line HepG2-A16-CD81EGFP; conditions: human, HepG2-A16-CD81EGFP cells; read-out: INHIBITION
Quick list: cytotoxicity at 10 µM per entry.
Reply with just the number (in %).

What the record says about Cn1cc(C(=O)Nc2cc(F)ccc2OCC2CCCO2)ccc1=O (centres undefined) : cytotoxicity at 10 µM is -7.09

What the record says about CCCc1nnnn1Cc1cn2c(C)cccc2n1 : cytotoxicity at 10 µM is -8.51

What the record says about CC(=O)Nc1nc(C(=O)N2CCCC(n3nc(C)cc3C)C2)cs1 (centres undefined) : cytotoxicity at 10 µM is 0.74

What the record says about CCCNC(=O)C1CCCN(Cc2ccc(-n3cncn3)c(C)c2)C1 (centres undefined) : cytotoxicity at 10 µM is 8.28

###

test: Toxicity liver stage against HepG2, at 10uM; format: cell-based; design: test concentration 10 uM, cell line HepG2-A16-CD81EGFP; conditions: human, HepG2-A16-CD81EGFP cells; read-out: INHIBITION
Quick list: cytotoxicity at 10 µM per entry.
Reply with just the number (in %).

These solved cases illustrate the format of a correct answer.
>  <compound>
O=C(Cn1c(-c2ccco2)cc2cccnc21)N1CCCC1

>  <reportedProperty>
cytotoxicity at 10 µM

>  <unitsLabel>
%

>  <measValue>
-4.04

$$$$
>  <compound>
CC(C)c1nsc(N2CCn3c(nnc3-c3ccccc3)C2)n1

>  <reportedProperty>
cytotoxicity at 10 µM

>  <unitsLabel>
%

>  <measValue>
-13.9

$$$$
>  <compound>
CC[C@H](C)[C@@H](CO)NC(C)Cc1ccc(F)cc1 (stereo not given in full)

>  <reportedProperty>
cytotoxicity at 10 µM

>  <unitsLabel>
%

>  <measValue>
-6.27

$$$$
>  <compound>
COc1ccc(-n2ncc(C(=O)NCC3COC(C)(C)O3)c2N)cc1 (stereo not given)

>  <reportedProperty>
cytotoxicity at 10 µM

>  <unitsLabel>
%

>  <measValue>
3.97

$$$$
>  <compound>
Fc1cnc(N2CCO[C@H]3CN(CC4CCC4)C[C@H]32)nc1

>  <reportedProperty>
cytotoxicity at 10 µM

>  <unitsLabel>
%

>  <measValue>
-8.71

$$$$

What the record says about O=C(NCC1CCOC1)c1csc(-c2ccc(F)cc2)n1 (stereo not given) : cytotoxicity at 10 µM is -3.06
